Molecular target: dog EphA2 (Dog, UniProt A0A286R219 28-206)
Experiment: FP direct binding, selectivity
Numbered stars: 1 amine (or outer) side, 2 acyl side, 3 side chain; on linkers, the order of the positions; unused ones are H or OH. Bridge positions count the residues as written; N and C are the ends. Square brackets hold non-standard residues; d marks the D form. Ends that are not written are not given here. AlexaFluor488 = AlexaFluor488 fluorescent dye label; TBMB = c1c(C[*:1])cc(C[*:3])cc1C[*:2]; AF488 = AlexaFluor488 label; βAla = NCCC(=O)O; Sar = CNCC(=O)O
Quick list: Kd per entry.
Just the number plus its unit, please.

[[record]]
binder = "ADVTCPWGPFWCPVNRPGCA (N-terminal Fl-G-Sar5 before the entry; three Cys cyclised on TBMB, bicyclic peptide, fluorescent) [Compound 18]"
result = "3.57 nM"

[[record]]
binder = "ACPWGPFWCPVNRPGC (N-terminal AlexaFluor488-G-Sar5 before the entry; three Cys cyclised on TBMB, bicyclic peptide, fluorescent) [Compound 67]"
result = "61.4 nM"

[[record]]
binder = "{AF488-βAla}-[Sar][Sar][Sar][Sar][Sar][Sar][Sar][Sar][Sar][Sar]H[dD]VPCPWGPFWCPVNRPGCA (linker 15-22-29 via TBMB, bicyclic peptide, fluorescent) [Compound 139]"
result = "2.17 nM"


Input line: Query (binder): {AlexaFluor488-βAla}-[Sar][Sar][Sar][Sar][Sar][Sar][Sar][Sar][Sar][Sar]ACPWGPFWCPVNRPGC (linker 12-19-26 via TBMB, bicyclic peptide, fluorescent) [Compound 68] ; field requested: Kd
Output line: 31.9 nM
